Record form. Attribute: apoptotic fraction of cells. Fill in for each entry.
Test system: SKMEL28
Assay: apoptotic fraction of cells (caspase-3 NucView488 positive); higher = more apoptosis
Details: 48 h; 3.16 µM
Numbers only.

Worked examples, 4 molecules total:
[[record]]
smiles_structure = "Cn1cnc2c(F)c(Nc3ccc(Br)cc3Cl)c(C(=O)NOCCO)cc21"
observed_result = 0.0991

[[record]]
smiles_structure = "CN(C)CCOc1ccc(-c2nc(-c3ccncc3)c(-c3ccc4c(c3)CC/C4=N\\O)[nH]2)cc1"
observed_result = 0.0466

[[record]]
smiles_structure = "CCCS(=O)(=O)Nc1ccc(F)c(C(=O)c2c[nH]c3ncc(-c4ccc(Cl)cc4)cc23)c1F"
observed_result = 0.0538

[[record]]
smiles_structure = "Cc1ccc(NC(=O)c2cccc(C(C)(C)C#N)c2)cc1Nc1ccc2ncn(C)c(=O)c2c1"
observed_result = 0.09


Attention now shifts to the item below.
Problem: Could you tell me which apoptotic fraction of cells is on file for CCCS(=O)(=O)Nc1ccc(F)c(C(=O)c2c[nH]c3ncc(Cl)cc23)c1F ?
Solution: 0.0568

* * *

Test system: MZ7MEL
Assay: relative viability (cell count relative to DMSO-treated control) (fraction of DMSO control); higher = more viable cells / less drug effect
Conditions: 24 h; 0.0316 µM
Record form. Attribute: relative viability. Fill in for each entry.
One number for each entry.

Worked examples, 3 compounds total:
[[record]]
compound = "CCCS(=O)(=O)Nc1ccc(F)c(C(=O)c2c[nH]c3ncc(-c4ccc(Cl)cc4)cc23)c1F [Vemurafenib]"
observed_result = 1.08

[[record]]
compound = "Cc1ccc(NC(=O)c2cccc(C(C)(C)C#N)c2)cc1Nc1ccc2ncn(C)c(=O)c2c1 [AZ628]"
observed_result = 1.05

[[record]]
compound = "CN(C)CCOc1ccc(-c2nc(-c3ccncc3)c(-c3ccc4c(c3)CC/C4=N\\O)[nH]2)cc1"
observed_result = 1.1


Please supply relative viability for each of the following items, keeping them in order.
1. CCCS(=O)(=O)Nc1ccc(F)c(C(=O)c2c[nH]c3ncc(Cl)cc23)c1F [PLX4720]
2. Cn1cnc2c(F)c(Nc3ccc(Br)cc3Cl)c(C(=O)NOCCO)cc21 [Selumetinib]

Solution:
[1.14, 1.11]

* * *

Record form. Attribute: apoptotic fraction of cells. Fill in for each entry.
System: MZ7MEL
Test: apoptotic fraction of cells (caspase-3 NucView488 positive); higher = more apoptosis
Settings: 72 h; 0.00316 µM
Answers are plain numbers.

Worked examples, 3 molecules total:
[[record]]
smiles_structure = "CCCS(=O)(=O)Nc1ccc(F)c(C(=O)c2c[nH]c3ncc(-c4ccc(Cl)cc4)cc23)c1F"
readout_type = "apoptotic fraction of cells"
observed_result = 0.0218

[[record]]
smiles_structure = "CN(C)CCOc1ccc(-c2nc(-c3ccncc3)c(-c3ccc4c(c3)CC/C4=N\\O)[nH]2)cc1"
readout_type = "apoptotic fraction of cells"
observed_result = 0.017

[[record]]
smiles_structure = "Cc1ccc(NC(=O)c2cccc(C(C)(C)C#N)c2)cc1Nc1ccc2ncn(C)c(=O)c2c1"
readout_type = "apoptotic fraction of cells"
observed_result = 0.0208


Please supply apoptotic fraction of cells for each of the following items, keeping them in order.
1. Cn1cnc2c(F)c(Nc3ccc(Br)cc3Cl)c(C(=O)NOCCO)cc21
2. CCCS(=O)(=O)Nc1ccc(F)c(C(=O)c2c[nH]c3ncc(Cl)cc23)c1F

Solution:
1. 0.0201
2. 0.0184
